test_system: Pancreatic lipase (PL) (Sus scrofa, UniProt P00591)
Construct: purchased Sigma Aldrich type II, Lot.SLBN9099V
procedure_text: Inhibition of PL-mediated 4-MUO hydrolysis
Type: biochemical
run_conditions: 4-MUO substrate, mean ± SD (n = 3)
property_measured: IC50

Worked cases, answers included:
molecule=CC(C)=CC/C=C(\C)[C@H]1CC[C@]2(C)[C@@H]1[C@H](O)C[C@@H]1[C@@]3(C)CC[C@H](O)C(C)(C)[C@@H]3[C@@H](O[C@@H]3O[C@H](CO)[C@@H](O)[C@H](O)[C@H]3O)C[C@]12C property_measured=IC50 experimental_result="> 100 µM"
molecule=C=C(C)[C@@H]1CC[C@]2(C=O)CC[C@]3(C)[C@H](CC[C@@H]4[C@@]5(C)CC[C@H](O)C(C)(C)[C@@H]5CC[C@]43C)[C@@H]12 property_measured=IC50 experimental_result="> 100 µM"
molecule=C=C(CC[C@@H](C(=O)O)[C@H]1[C@H](O)C[C@@]2(C)C3=C(CC[C@]12C)[C@@]1(C)CC[C@H](OC(C)=O)C(C)(C)[C@@H]1CC3)C(C)C property_measured=IC50 experimental_result="> 100 µM"
molecule=CC1(C)CC[C@]2(C(=O)O)CC[C@]3(C)C(=CC[C@@H]4[C@@]5(C)CC[C@H](O)[C@@](C)(CO)[C@@H]5CC[C@]43C)[C@@H]2C1 property_measured=IC50 experimental_result="13 µM"

# query: IC50 of entry CCCC(=O)OC1CCC2(C)C(CCC3(C)C2CC=C2C4CC(C)(C)CCC4(C(=O)O)CCC23C)C1(C)C (centres unmarked)
> 100 µM

---

test_system: Pancreatic lipase (PL) (Sus scrofa, UniProt P00591)
Construct: purchased Sigma Aldrich type II, Lot.SLBN9099V
Sequence (P00591 1-450): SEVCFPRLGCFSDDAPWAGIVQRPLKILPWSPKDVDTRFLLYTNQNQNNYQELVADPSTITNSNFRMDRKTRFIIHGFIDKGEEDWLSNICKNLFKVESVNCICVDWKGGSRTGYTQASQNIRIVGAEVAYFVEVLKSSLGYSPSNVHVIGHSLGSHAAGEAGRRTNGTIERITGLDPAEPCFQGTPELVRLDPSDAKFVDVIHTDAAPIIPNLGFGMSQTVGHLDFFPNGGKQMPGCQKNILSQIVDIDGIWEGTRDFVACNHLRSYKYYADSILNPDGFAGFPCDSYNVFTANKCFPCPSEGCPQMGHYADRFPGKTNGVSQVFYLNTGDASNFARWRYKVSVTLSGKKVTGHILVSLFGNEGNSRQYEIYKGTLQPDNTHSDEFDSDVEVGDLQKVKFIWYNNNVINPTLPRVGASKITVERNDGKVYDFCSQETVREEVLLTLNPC
procedure_text: Inhibition of PL-mediated 4-MUO hydrolysis
Type: biochemical
run_conditions: 4-MUO substrate, mean ± SD (n = 3)
property_measured: IC50 (µM)
All answers are understood in µM, so give the number only.

Fill blank: measured IC50 of the compound CC1CCC2(C(=O)O)CCC3(C)C(=CCC4C5(C)C=C(O)C(=O)C(C)(C)C5CCC43C)C2C1C (stereo not shown) is ____.
5.21

Give its IC50 value. Item: CC(=O)OC1CCC2(C)C(CCC3(C)C2CC=C2C4CC(C)(C)CCC4(C(=O)O)CCC23C)C1(C)C (stereo not shown)
3.67

Consider the compound CC1(C)CCC2(C(=O)O)CCC3(C)C(=CCC4C5(C)CCC(=O)C(C)(C)C5CCC43C)C2C1 (stereo not shown) and give its measured IC50.
7.51

What value of measured IC50 is listed for COC(=O)C12CCC(C)(C)CC1C1=CCC3C4(C)CCC(O)C(C)(C)C4CCC3(C)C1(C)CC2 (stereo not shown) ?
30.6

Name the recorded IC50 for CC1(C)CCC2(CO)CCC3(C)C(=CCC4C5(C)CCC(O)C(C)(C)C5CCC43C)C2C1 (stereo not shown) .
11.8
